tested on: housefly (Musca domestica L.); experiment: Housefly mortality, residue on aluminum dishes; type: in vivo; settings: 25 3-day old female houseflies; mortality after 48 hours
Can you tell me Insecticide Activity - Approximate LD50, HF (Housefly) for the items I'm about to list?
One number for each entry, in μg/25 F..

Example compounds with recorded Insecticide Activity - Approximate LD50, HF (Housefly):
- CCOP(=S)(OCC)SCC(=O)N=C(OC)N1CCCCC1: 25
- CCN(C(=NC(=O)CSP(=S)(OC)OC)OC)c1ccccc1: 25

For every item below, please supply its Insecticide Activity - Approximate LD50, HF (Housefly).
1. CCOP(=S)(OCC)SCC(=O)N=C(OC)N(C)Cc1ccccc1
2. C=CCN(CC=C)C(=NC(=O)CSP(=S)(OCC)OCC)OC
3. C=CCN(C(=NC(=O)CSP(=S)(OCC)OCC)OC)c1ccccc1

// result
1: 24; 2: 10; 3: 10
